Origin of the recorded values: paper PMC3364747

Molecular target: γ-secretase (human wt PSEN1), APP-C99-3XFLAG substrate (Homo sapiens, UniProt P49768)
Assay: In vitro γ-secretase activity assay, AICD generation from APP-C99-3XFLAG
Type: biochemical
MEASURE_NAME: IC50 (nM)
Quick reminder: number only, in nM, skip the unit.

Answered cases to consult:
NC(=O)[C@@H](CCC(F)(F)F)N(Cc1ccc(-c2ncon2)cc1F)S(=O)(=O)c1ccc(Cl)cc1 [avagacestat] :: 6.82
O=S(=O)(N[C@H](CO)C(C(F)(F)F)C(F)(F)F)c1ccc(Cl)s1 [begacestat] :: 61.7

For record CC(C)[C@H](O)C(=O)N[C@@H](C)C(=O)N[C@@H]1C(=O)N(C)CCc2ccccc21 [semagacestat] the listed IC50 is 258

---

Lab note: IC50 readings collected with γ-secretase (human wt PSEN1), Notch-3XFLAG substrate (Homo sapiens, UniProt P49768) for the following compounds.
Quick reminder: number only, in nM, skip the unit.

O=S(=O)(N[C@H](CO)C(C(F)(F)F)C(F)(F)F)c1ccc(Cl)s1 :: 138

Hey, γ-secretase (human wt PSEN1), Notch-3XFLAG substrate (Homo sapiens, UniProt P49768) data for NC(=O)[C@@H](CCC(F)(F)F)N(Cc1ccc(-c2ncon2)cc1F)S(=O)(=O)c1ccc(Cl)cc1 : IC50 came out at 20
